Test: RP, Waters ACQUITY UPLC BEH C18, 50 × 2.1 mm, 1.7 µm, 35 °C, 0.25 mL/min, estimated dead time 0.44 min; A: water + 0.1% acetic acid, pH 3; B: acetonitrile; gradient (min/%B) 0/5 1.12/5 6.41/99.5 10.01/99.5
Settings: stereoisomer not certain
result_type: LC retention time (min)
Give the quantity in min, number only.

Would you mind telling me what LC retention time value was observed for CCCCCCCCCCCCCCCCC(=O)O [heptadecanoic acid] ?
15

Would you mind telling me what LC retention time value was observed for CCCCCCCCCCCCCCCCCC(=O)OCC(O)COP(=O)([O-])OCC[N+](C)(C)C (stereo not given) [lysoPC(18:0/0:0)] ?
11.5

Would you mind telling me what LC retention time value was observed for O=C(O)CCCCCCCCCCCCCCC(=O)O [hexadecanedioic acid] ?
9.37

Would you mind telling me what LC retention time value was observed for NC(Cc1ccccc1)C(=O)NC(Cc1ccccc1)C(=O)O (stereo not given) [Phe-phe] ?
4

Would you mind telling me what LC retention time value was observed for COCC(NC(C)=O)C(=O)NCc1ccccc1 (stereo not given) [lacosamide] ?
4
